- Method Summary: Efflux ratio of apparent permeability in MDCK2-MDR1 cells by UV-Visible spectrophotometric method
- Assay type: ADME, cell-based, Canis lupus familiaris
- Experimental Conditions: dog, MDCK-MDR1
Answer each item with its documented efflux ratio.
One number for each entry.

Cc1c(C)c2ccc(OCC3CCN(CCCO[N+](=O)[O-])CC3)cc2oc1=O; 3.17
Cc1c(C)c2ccc(OCC3CCN(CCCO)CC3)cc2oc1=O; 1.5
Cc1c(C)c2ccc(OCC3CCN(Cc4cccc(CO[N+](=O)[O-])c4)CC3)cc2oc1=O; 1.33

Proceed to the following item.
In: State, in one line, measured efflux ratio of Cc1c(C)c2ccc(OCC3CCN(Cc4cccc(CO)c4)CC3)cc2oc1=O
Out: 1.09

----------
- System: Amine oxidase [flavin-containing] B (Homo sapiens, UniProt P27338)
- Method Summary: Inhibition of recombinant human MAO-B expressed in baculovirus infected insect cell microsomes using kynuramine as substrate measured after 30 mins by fluorescence based assay
Please provide measured pIC50 for the entries that follow.
Give bare numbers, as −log10 of the molar value.

Sample answers from the record:
Cc1cc(=O)oc2cc(OCC3CCN(Cc4ccc(CO)cc4)CC3)ccc12; 6.22
CN(C)Cc1ccc(COc2ccc3c(CO)cc(=O)oc3c2)cc1; 7.11
Cc1cc2ccc(OCC3CCN(Cc4ccc(CO)cc4)CC3)cc2oc1=O; 5.51
CN(C)Cc1cccc(COc2ccc3c(CO)cc(=O)oc3c2)c1; 7.27
CN(C)Cc1cc(=O)oc2cc(OCc3cccc(CO)c3)ccc12; 5.96

Hi! Can you tell me pIC50 for each of these compounds?
1. Cc1c(C)c2ccc(OCC3CCCN(Cc4cccc(CO)c4)C3)cc2oc1=O (stereo unspecified)
2. Cc1c(C)c2ccc(OCC3CCN(Cc4cccc(OCCCO[N+](=O)[O-])c4)CC3)cc2oc1=O
3. Cc1cc2ccc(OCC3CCN(Cc4cccc(CO)c4)CC3)cc2oc1=O
4. CN(C)Cc1cc(=O)oc2cc(OCc3ccc(CO)cc3)ccc12
5. Cc1cc(=O)oc2cc(OCC3CCN(Cc4cccc(CO)c4)CC3)ccc12
6. Cc1c(C)c2ccc(OCC3CCN(Cc4cccc(CO)c4)CC3)cc2oc1=O

Out:
1. 6.96
2. 6.26
3. 5.96
4. 6.20
5. 6.32
6. 7.12

----------
- System: Cholinesterase (Equus caballus) (UniProt P81908)
- Sequence (P81908 whole entry): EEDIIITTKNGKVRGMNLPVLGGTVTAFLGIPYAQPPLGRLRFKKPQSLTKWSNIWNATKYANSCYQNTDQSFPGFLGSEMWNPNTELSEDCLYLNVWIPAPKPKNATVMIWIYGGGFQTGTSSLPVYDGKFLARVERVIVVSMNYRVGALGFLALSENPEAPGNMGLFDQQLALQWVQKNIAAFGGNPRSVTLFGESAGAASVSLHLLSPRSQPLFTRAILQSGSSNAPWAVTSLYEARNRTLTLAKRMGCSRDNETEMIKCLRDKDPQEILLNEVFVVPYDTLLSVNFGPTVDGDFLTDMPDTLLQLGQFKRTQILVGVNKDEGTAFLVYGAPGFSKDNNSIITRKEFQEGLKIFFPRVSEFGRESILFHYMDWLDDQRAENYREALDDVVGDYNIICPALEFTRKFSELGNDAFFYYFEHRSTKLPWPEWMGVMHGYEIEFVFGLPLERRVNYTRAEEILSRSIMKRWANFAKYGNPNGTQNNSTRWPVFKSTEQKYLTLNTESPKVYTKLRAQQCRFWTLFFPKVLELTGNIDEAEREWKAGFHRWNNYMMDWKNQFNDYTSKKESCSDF
- Method Summary: Inhibition of equine serum BuChE at 10 uM using butyrylthiocholine iodide as substrate by Ellman's method relative to control
What inhibition was measured for each of the following?
Numbers only, in %.

Example entries and their recorded answers appear below.
Cc1c(C)c2ccc(OCC3CCN(Cc4ccc(CCO)cc4)CC3)cc2oc1=O; 41
Cc1cc(=O)oc2cc(OCC3CCN(Cc4ccc(CO)cc4)CC3)ccc12; 45
Cc1c(C)c2ccc(OCC3CCN(CCCO)CC3)cc2oc1=O; 30
O=c1ccc2ccc(OCC3CCN(CCCO)CC3)cc2o1; 26
Cc1c(C)c2ccc(OCCC3CCN(CCCO)CC3)cc2oc1=O; 39
Cc1c(C)c2ccc(OCC3CCCN(CCCO)C3)cc2oc1=O (centres undefined); 26
CN(C)Cc1ccc(COc2ccc3c(CO)cc(=O)oc3c2)cc1; 43
CN(C)Cc1cc(=O)oc2cc(OCc3cccc(CO)c3)ccc12; 35

In: // Input: CN(C)Cc1cccc(COc2ccc3c(CO)cc(=O)oc3c2)c1 . Output its inhibition only.
Out: 36

----------
- System: Acetylcholinesterase (Homo sapiens, UniProt P22303)
- Sequence (P22303 whole entry): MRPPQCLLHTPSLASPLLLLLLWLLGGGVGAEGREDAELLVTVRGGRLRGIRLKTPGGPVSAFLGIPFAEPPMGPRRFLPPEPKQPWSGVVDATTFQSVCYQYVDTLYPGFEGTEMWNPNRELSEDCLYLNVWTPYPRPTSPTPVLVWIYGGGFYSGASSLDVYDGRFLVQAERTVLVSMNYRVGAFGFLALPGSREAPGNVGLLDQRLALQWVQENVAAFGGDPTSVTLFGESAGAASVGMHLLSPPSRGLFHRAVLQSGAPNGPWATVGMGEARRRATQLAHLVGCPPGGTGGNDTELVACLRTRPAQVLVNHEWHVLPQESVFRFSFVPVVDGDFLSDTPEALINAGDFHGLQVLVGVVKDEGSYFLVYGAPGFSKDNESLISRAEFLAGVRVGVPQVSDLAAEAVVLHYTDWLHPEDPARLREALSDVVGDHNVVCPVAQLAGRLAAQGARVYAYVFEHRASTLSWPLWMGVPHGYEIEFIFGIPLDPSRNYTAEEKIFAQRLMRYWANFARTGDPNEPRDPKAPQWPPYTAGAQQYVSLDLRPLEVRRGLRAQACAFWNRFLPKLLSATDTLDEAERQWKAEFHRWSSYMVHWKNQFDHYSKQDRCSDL
- Method Summary: Inhibition of human recombinant AChE using acetylthiocholine iodide as substrate by Ellman's method
Quick rule for you: IC50 under 900 nM gets TRUE, anything else gets FALSE.

Here are 3 compounds together with their reported answers.
Cc1c(C)c2ccc(OCC3CCN(Cc4cccc(OCCCO[N+](=O)[O-])c4)CC3)cc2oc1=O; TRUE
Cc1c(C)c2ccc(OCC3CCN(Cc4cccc(CO[N+](=O)[O-])c4)CC3)cc2oc1=O; FALSE
Cc1c(C)c2ccc(OCC3CCN(CCCO[N+](=O)[O-])CC3)cc2oc1=O; TRUE

In: Please check: IC50 for Cc1c(C)c2ccc(OCC3CCN(Cc4cccc(OCCCO)c4)CC3)cc2oc1=O , strictly under 900 nM or not?
Out: TRUE

In: For this compound, is IC50 lower than 900 nM? Cc1c(C)c2ccc(OCC3CCN(Cc4cccc(CO)c4)CC3)cc2oc1=O
Out: FALSE

----------
- Method Summary: Half life in human serum at 100 uM by RP-HPLC method
- Assay type: ADME, cell-free
Assign half-life at 100 µM to each entry below.
Answers are plain numbers, in h.

Answered examples (2):
Cc1c(C)c2ccc(OCC3CCN(CCCO[N+](=O)[O-])CC3)cc2oc1=O; 23
Cc1c(C)c2ccc(OCC3CCN(Cc4cccc(CO[N+](=O)[O-])c4)CC3)cc2oc1=O; 36.8

In: Using known records, supply half-life at 100 µM for Cc1c(C)c2ccc(OCC3CCN(Cc4cccc(OCCCO[N+](=O)[O-])c4)CC3)cc2oc1=O
Out: 458

----------
Can you tell me IC50 for the items I'm about to list?
- System: Amine oxidase [flavin-containing] B (Homo sapiens)
- Sequence (P27338 whole entry): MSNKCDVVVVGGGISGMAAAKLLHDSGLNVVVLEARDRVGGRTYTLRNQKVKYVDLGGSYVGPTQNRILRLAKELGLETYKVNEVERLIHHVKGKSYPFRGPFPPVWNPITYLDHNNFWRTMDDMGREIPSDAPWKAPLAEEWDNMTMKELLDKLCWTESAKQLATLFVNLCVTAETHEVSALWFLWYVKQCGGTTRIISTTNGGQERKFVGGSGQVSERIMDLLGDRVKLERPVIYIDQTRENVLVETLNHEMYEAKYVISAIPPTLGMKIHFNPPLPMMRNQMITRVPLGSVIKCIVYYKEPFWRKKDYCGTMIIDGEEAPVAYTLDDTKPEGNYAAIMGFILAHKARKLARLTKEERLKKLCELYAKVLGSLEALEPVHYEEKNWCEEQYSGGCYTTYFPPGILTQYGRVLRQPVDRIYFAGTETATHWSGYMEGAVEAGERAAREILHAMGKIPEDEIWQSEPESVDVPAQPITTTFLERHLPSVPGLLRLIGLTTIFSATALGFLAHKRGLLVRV
- Method Summary: Inhibition of recombinant human MAO-B expressed in baculovirus infected insect cell microsomes using kynuramine as substrate measured after 30 mins by spectrophotometric assay
Numbers only, in nM.

Some molecules with known IC50 results, for comparison:
CN(C)Cc1cc(=O)oc2cc(OCc3ccc(CO)cc3)ccc12; 770
CN(C)Cc1ccc(COc2ccc3c(CO)cc(=O)oc3c2)cc1; 74

In: // fetch IC50 for Cc1c(C)c2ccc(OCC3CCN(Cc4ccc(CO)cc4)CC3)cc2oc1=O ; system: Amine oxidase [flavin-containing] B (Homo sapiens)
Out: 39

----------
Task for the reader: assign each of the following compounds its reported inhibition at 10 µM.
- System: Amine oxidase [flavin-containing] A (Homo sapiens, UniProt P21397)
- Sequence (P21397 whole entry): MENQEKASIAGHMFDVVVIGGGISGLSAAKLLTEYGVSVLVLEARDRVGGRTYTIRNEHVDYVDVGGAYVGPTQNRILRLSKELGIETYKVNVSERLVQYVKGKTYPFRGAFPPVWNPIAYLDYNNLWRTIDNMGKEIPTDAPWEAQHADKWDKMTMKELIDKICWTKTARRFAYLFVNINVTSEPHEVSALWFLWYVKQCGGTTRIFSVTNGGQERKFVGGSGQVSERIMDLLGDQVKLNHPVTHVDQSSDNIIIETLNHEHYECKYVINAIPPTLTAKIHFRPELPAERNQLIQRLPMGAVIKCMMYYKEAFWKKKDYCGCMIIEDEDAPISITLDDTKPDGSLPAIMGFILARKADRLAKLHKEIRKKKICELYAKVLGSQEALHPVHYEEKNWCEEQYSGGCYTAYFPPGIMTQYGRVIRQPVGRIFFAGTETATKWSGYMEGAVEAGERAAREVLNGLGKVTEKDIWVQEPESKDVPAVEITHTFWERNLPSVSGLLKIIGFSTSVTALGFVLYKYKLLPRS
- Method Summary: Inhibition of recombinant human MAO-A expressed in baculovirus infected insect cell microsomes at 10 uM using kynuramine as substrate measured after 30 mins by fluorescence based assay relative to control
- Experimental Conditions: 0.5 h
Answers are plain numbers, in %.

CN(C)Cc1cc(=O)oc2cc(OCc3ccc(CO)cc3)ccc12; 23
Cc1cc2ccc(OCC3CCN(Cc4ccc(CO)cc4)CC3)cc2oc1=O; 43
Cc1c(C)c2ccc(OCc3cccc(CN4CCC(CO)CC4)c3)cc2oc1=O; 23
O=c1ccc2ccc(OCC3CCN(CCCO)CC3)cc2o1; 26
Cc1c(C)c2ccc(OCC3CCN(CCCCO)CC3)cc2oc1=O; 30

// each listed compound needs a value for inhibition at 10 µM
1. Cc1c(C)c2ccc(OCC3CCCN(CCCO)C3)cc2oc1=O (stereo not drawn)
2. Cc1c(C)c2ccc(OCCC3CCN(CCCO)CC3)cc2oc1=O

Out:
1: 41; 2: 35

// each listed compound needs a value for inhibition at 10 µM
1. CN(C)Cc1cc(=O)oc2cc(OCc3cccc(CO)c3)ccc12
2. Cc1c(C)c2ccc(OCC3CCN(CCCO[N+](=O)[O-])CC3)cc2oc1=O
3. CN(C)Cc1cccc(COc2ccc3c(CO)cc(=O)oc3c2)c1
4. O=c1ccc2ccc(OCC3CCCN(CCCO)C3)cc2o1 (stereo not drawn)
5. Cc1c(C)c2ccc(OCC3CCN(CCCO)CC3)cc2oc1=O
6. CN(C)Cc1ccc(COc2ccc3c(CO)cc(=O)oc3c2)cc1

Out:
1: 21; 2: 36; 3: 42; 4: 14; 5: 44; 6: 20

Values compiled from ChEMBL document CHEMBL4325863.
